biological target: human kinase Mps-1 (Homo sapiens); construct: N-terminally GST-tagged human full length recombinant Mps-1 kinase; GST (N); purchased Invitrogen, Karslruhe, Germany PV4071; assay: Mps-1 kinase assay (HTRF); type: biochemical
Kindly note that classification relies on IC50 with these boundaries: small value = under 4 nM, mid value = from 4 nM up to 100 nM, large value = 100 nM and over

{"columns": ["COMPOUND", "LABEL"],
 "data": [
  ["CC(C)(C)CNC(=O)c1cccc(-c2ccc3nc(Nc4ccc(C(=O)NCC(C)(C)O)cc4OCC(F)(F)F)nn3c2)c1", "small value"],
  ["CCOc1cc(C(=O)NCC(C)(C)O)ccc1Nc1nc2ccc(-c3ccc(C(=O)NCC(C)C)cc3)cn2n1", "small value"],
  ["Cc1cccc(-c2ccc3nc(Nc4ccccc4C#N)nn3c2)c1", "large value"]
]}

Incoming: Into which category would you place N#Cc1ccccc1Nc1nc2ccc(-c3cccc(CO)c3)cn2n1 ?
Outgoing: mid value

Incoming: Into which category would you place CCNC(=O)c1ccc(Nc2nc3ccc(-c4ccc(C(=O)NCC(F)(F)F)cc4)cn3n2)c(OC)c1 ?
Outgoing: small value

Incoming: Into which category would you place N#Cc1ccccc1Nc1nc2ccc(-c3cccc(O)c3)cn2n1 ?
Outgoing: mid value

* * *

molecular target: human kinase Mps-1 (Homo sapiens, UniProt P33981); construct: N-terminally GST-tagged human full length recombinant Mps-1 kinase; GST (N); test: Mps-1 kinase assay (HTRF)
Sequence (P33981 whole entry): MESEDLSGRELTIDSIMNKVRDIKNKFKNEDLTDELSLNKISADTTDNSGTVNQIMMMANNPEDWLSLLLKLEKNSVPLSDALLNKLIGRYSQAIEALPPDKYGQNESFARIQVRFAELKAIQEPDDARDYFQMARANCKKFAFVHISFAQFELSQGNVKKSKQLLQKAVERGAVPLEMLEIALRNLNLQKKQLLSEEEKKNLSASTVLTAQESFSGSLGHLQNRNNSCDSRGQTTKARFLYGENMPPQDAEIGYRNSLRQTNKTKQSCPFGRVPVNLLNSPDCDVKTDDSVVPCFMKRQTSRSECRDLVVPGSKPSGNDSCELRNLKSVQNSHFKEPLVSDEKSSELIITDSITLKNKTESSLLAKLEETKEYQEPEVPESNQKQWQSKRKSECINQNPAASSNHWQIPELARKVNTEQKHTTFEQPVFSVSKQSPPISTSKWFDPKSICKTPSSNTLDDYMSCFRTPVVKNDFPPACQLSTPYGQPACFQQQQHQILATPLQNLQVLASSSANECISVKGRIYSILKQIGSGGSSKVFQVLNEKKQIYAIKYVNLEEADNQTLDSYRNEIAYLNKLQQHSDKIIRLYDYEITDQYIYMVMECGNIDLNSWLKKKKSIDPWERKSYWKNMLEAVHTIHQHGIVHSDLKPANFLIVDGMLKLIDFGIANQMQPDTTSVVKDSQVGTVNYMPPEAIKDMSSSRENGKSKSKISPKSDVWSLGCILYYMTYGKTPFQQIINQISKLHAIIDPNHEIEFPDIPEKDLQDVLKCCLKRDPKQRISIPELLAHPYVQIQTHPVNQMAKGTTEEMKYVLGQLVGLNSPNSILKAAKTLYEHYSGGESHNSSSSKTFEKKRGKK
VALUE TYPE: IC50 (nM)
Provide only the numeric value, understood in nM.

Example compounds with recorded IC50:
{"columns": ["COMPOUND", "TEST TARGET", "IC50 / nM"],
 "data": [
  ["COc1ccccc1Nc1nc2ccc(-c3cccc(NS(C)(=O)=O)c3)cn2n1 [Example 8.3]", "human kinase Mps-1 (Homo sapiens, UniProt P33981)", 190],
  ["COc1cc(C(=O)NC(C)(C)C)ccc1Nc1nc2ccc(-c3ccc(C(=O)NCC(F)(F)F)cc3)cn2n1 [Example 11.005]", "human kinase Mps-1 (Homo sapiens, UniProt P33981)", 1.01],
  ["CCOc1ccccc1Nc1nc2ccc(-c3cccc(NC(C)=O)c3)cn2n1 [Example 2.10]", "human kinase Mps-1 (Homo sapiens, UniProt P33981)", 130]
]}

Incoming: Give the reported IC50 for CC(C)NC(=O)c1cccc(-c2ccc3nc(Nc4ccccc4C#N)nn3c2)c1 [Example 9.4] (system: human kinase Mps-1 (Homo sapiens, UniProt P33981)).
Outgoing: 8.8

Incoming: Give the reported IC50 for COc1cc(C(=O)NC(C)(C)CO)ccc1Nc1nc2ccc(-c3ccc(C(=O)NCC(C)C)cc3)cn2n1 [Example 11.022] (system: human kinase Mps-1 (Homo sapiens, UniProt P33981)).
Outgoing: 4.36

Incoming: Give the reported IC50 for N#Cc1ccccc1Nc1nc2ccc(-c3ccc(C(=O)NCC(F)(F)F)cc3)cn2n1 [Example 11.010] (system: human kinase Mps-1 (Homo sapiens, UniProt P33981)).
Outgoing: 1.61

Incoming: Give the reported IC50 for CC(=O)Nc1cccc(-c2ccc3nc(Nc4ccc(C(C)C)cc4)nn3c2)c1 [Example 2.9] (system: human kinase Mps-1 (Homo sapiens, UniProt P33981)).
Outgoing: 1800

* * *

# Lookup of reported IC50 keyed by entry
target: human kinase Mps-1 (Homo sapiens, UniProt P33981); construct: N-terminally GST-tagged human full length recombinant Mps-1 kinase; GST (N); assay: Mps-1 kinase assay (HTRF)
Provide only the numeric value, understood in nM.

{"columns": ["COMPOUND", "OBSERVED MEASUREMENT"],
 "data": [
  ["CC(C)(C)CNC(=O)c1cccc(-c2ccc3nc(Nc4ccccc4C#N)nn3c2)c1F [Example 11.058]", 12.8],
  ["CCCNC(=O)c1cccc(-c2ccc3nc(Nc4ccccc4C#N)nn3c2)c1 [Example 11.052]", 6.37],
  ["CCOc1ccccc1Nc1nc2ccc(-c3cc(C)c(O)c(C)c3)cn2n1 [Example 1.12]", 92],
  ["N#Cc1ccccc1Nc1nc2ccc(-c3cccc(C(=O)NCCF)c3)cn2n1 [Example 11.054]", 6.13],
  ["N#Cc1ccccc1Nc1nc2ccc(-c3cccc(C(=O)O)c3)cn2n1 [Example 9.2]", 72]
]}

Please find the next compound below.
Incoming: Give the reported IC50 for COc1c(C)cc(-c2ccc3nc(Nc4ccccc4C#N)nn3c2)cc1C [Example 3.19] (system: human kinase Mps-1 (Homo sapiens, UniProt P33981)).
Outgoing: 96

* * *

target: human kinase Mps-1 (Homo sapiens); construct: N-terminally GST-tagged human full length recombinant Mps-1 kinase; GST (N); test: Mps-1 kinase assay (HTRF)
VALUE TYPE: pIC50
Reminder that pIC50 means the negative base-10 logarithm of the concentration expressed in mol/L.

{"columns": ["COMPOUND", "pIC50"],
 "data": [
  ["CC(F)(F)CNC(=O)c1cccc(-c2ccc3nc(Nc4ccccc4C#N)nn3c2)c1", 8.60],
  ["COc1cc(C(=O)NC(C)(C)CO)ccc1Nc1nc2ccc(-c3ccc(C(=O)NCC(F)(F)F)c(Cl)c3)cn2n1", 8.39],
  ["COC(C)CNC(=O)c1cccc(-c2ccc3nc(Nc4ccccc4C#N)nn3c2)c1 (racemic)", 8.17],
  ["CCOc1cc(C(=O)NC(C)(C)C)ccc1Nc1nc2ccc(-c3cccc(C(=O)NCC(F)(F)F)c3)cn2n1", 8.79]
]}

Incoming: What measured pIC50 goes with N#Cc1ccccc1Nc1nc2ccc(-c3cccc(C(=O)NCCC(F)(F)F)c3)cn2n1 ?
Outgoing: 8.40

Incoming: What measured pIC50 goes with Cc1cc(-c2ccc3nc(Nc4ccccc4OC(F)(F)F)nn3c2)cc(C)c1O ?
Outgoing: 6.85

Incoming: What measured pIC50 goes with CCN(CC)C(=O)c1ccc(Nc2nc3ccc(-c4cc(C)c(O)c(C)c4)cn3n2)c(OC)c1 ?
Outgoing: 6.55

Incoming: What measured pIC50 goes with CC(=O)Nc1cccc(-c2ccc3nc(Nc4ccc(OC(F)(F)F)cc4)nn3c2)c1 ?
Outgoing: 5.48

* * *

target: human kinase Mps-1 (Homo sapiens); construct: N-terminally GST-tagged human full length recombinant Mps-1 kinase; GST (N); test: Mps-1 kinase assay (HTRF)
# Lookup of reported IC50 keyed by entry

Example molecules with recorded IC50:
{"columns": ["SUBSTANCE SMILES", "IC50"],
 "data": [
  ["CC(C)(C)CNC(=O)c1cccc(-c2ccc3nc(Nc4ccc(C(=O)NC(C)(C)CO)cc4OCC(F)(F)F)nn3c2)c1", "≤ 1 nM"],
  ["C[C@H](NC(=O)c1cccc(-c2ccc3nc(Nc4ccccc4C#N)nn3c2)c1)C(F)(F)F", "26.5 nM"],
  ["CC(C)(C)NC(=O)c1ccc(Nc2nc3ccc(-c4ccc(C(=O)NCC(F)(F)F)cc4)cn3n2)c(OCC(F)(F)F)c1", "≤ 1 nM"],
  ["N#Cc1ccc(-c2ccc3nc(Nc4ccccc4C#N)nn3c2)cc1", "1500 nM"],
  ["COc1cc(C(=O)NCC(C)(C)O)ccc1Nc1nc2ccc(-c3ccc(C(=O)NCC(F)(F)F)cc3)cn2n1", "1.29 nM"],
  ["COc1ccc(F)cc1Nc1nc2ccc(-c3cc(C)c(O)c(C)c3)cn2n1", "150 nM"],
  ["CCOc1cc(C(=O)NC(C)(C)C)ccc1Nc1nc2ccc(-c3ccc(C(=O)NCC(F)(F)F)cc3)cn2n1", "≤ 1 nM"],
  ["N#Cc1ccccc1Nc1nc2ccc(-c3ccc(N)cc3)cn2n1", "46 nM"],
  ["CCOc1cc(C(=O)NC(C)(C)CO)ccc1Nc1nc2ccc(-c3ccc(C(=O)NCC(F)(F)F)cc3)cn2n1", "≤ 1 nM"],
  ["CC(F)(F)CNC(=O)c1cccc(-c2ccc3nc(Nc4ccccc4C#N)nn3c2)c1F", "26.7 nM"]
]}

Incoming: What measured IC50 goes with CC(C)(C)CC(=O)Nc1ccc(-c2ccc3nc(Nc4ccccc4C#N)nn3c2)cc1 ?
Outgoing: 18.9 nM

Incoming: What measured IC50 goes with N#Cc1ccccc1Nc1nc2ccc(-c3ccc4cc[nH]c4c3)cn2n1 ?
Outgoing: 940 nM

Incoming: What measured IC50 goes with CC(C)(CO)NC(=O)c1ccc(Nc2nc3ccc(-c4cccc(C(=O)NCC(F)(F)F)c4)cn3n2)c(OCC(F)(F)F)c1 ?
Outgoing: ≤ 1 nM

Incoming: What measured IC50 goes with COc1cc(C(=O)NC(C)(C)CO)ccc1Nc1nc2ccc(-c3ccc(C(=O)NCC(F)(F)F)c(F)c3)cn2n1 ?
Outgoing: 1.03 nM

Incoming: What measured IC50 goes with COc1cc(C#N)ccc1Nc1nc2ccc(-c3cc(C)c(O)c(C)c3)cn2n1 ?
Outgoing: 17 nM

Incoming: What measured IC50 goes with COCCNC(=O)c1cccc(-c2ccc3nc(Nc4ccccc4C#N)nn3c2)c1 ?
Outgoing: 24.7 nM

Incoming: What measured IC50 goes with CC(C)(C)CNC(=O)c1cc(F)cc(-c2ccc3nc(Nc4ccccc4C#N)nn3c2)c1 ?
Outgoing: 9.21 nM

Incoming: What measured IC50 goes with CCOc1cc(C(=O)NCCS(C)(=O)=O)ccc1Nc1nc2ccc(-c3cccc(C(=O)NCC(C)(C)C)c3)cn2n1 ?
Outgoing: ≤ 1 nM

Incoming: What measured IC50 goes with CC(C)(C)NC(=O)c1cccc(-c2ccc3nc(Nc4ccccc4C#N)nn3c2)c1 ?
Outgoing: 1.18 nM

Incoming: What measured IC50 goes with CCNC(=O)c1ccc(Nc2nc3ccc(-c4cccc(C(=O)NCC(C)(C)C)c4)cn3n2)c(OC)c1 ?
Outgoing: ≤ 1 nM

Incoming: What measured IC50 goes with CCOc1cc(C(=O)NC(C)(C)CO)ccc1Nc1nc2ccc(-c3ccc(C(=O)NCC(C)C)cc3)cn2n1 ?
Outgoing: 1.92 nM

Incoming: What measured IC50 goes with N#Cc1ccccc1Nc1nc2ccc(-c3cc(F)cc(C(=O)O)c3)cn2n1 ?
Outgoing: 170 nM

Incoming: What measured IC50 goes with COc1ccccc1Nc1nc2ccc(-c3ccc(NC(C)=O)cc3)cn2n1 ?
Outgoing: 76 nM

Incoming: What measured IC50 goes with N#Cc1ccccc1Nc1nc2ccc(-c3cc(F)cc(C(=O)NCC(F)(F)F)c3)cn2n1 ?
Outgoing: 12.6 nM
